# Test system: BDF1 mice, s.c. Lewis lung carcinoma, T/C %
# PROTOCOL TEXT: NCI In Vivo Anticancer Drug Screen. Data for tumor model Lewis Lung Carcinoma (subcutaneous) in B6D2F1 (BDF1) mice
# TEST PARAMETERS: endpoint: median survival time; dose: 3.12 mg/kg/injection; schedule: Q01DX009 (ip); vehicle: Klucel (hydroxypropylcellulose) (HPC); higher = longer survival
Inconclusive results are not listed.
REPORTED ENDPOINT: T/C

Below, each entry is followed by its recorded T/C result.
• C=C1C(=O)OC2C1CCC(C)C1CCC(=O)OC12C (stereo not given) = 102 % of control
• NC(=S)N/N=C\c1ncnc2ccccc12 = 103 % of control
• COc1cc(NS(C)(=O)=O)ccc1Nc1c2ccccc2nc2ccccc12 = 118 % of control
• CCO/C=C1\SC(=S)N(c2ccccc2OC)C1=O = 98 % of control
• O=C1N(Br)C(=O)C(c2ccc(Cl)cc2)(c2ccc(Cl)cc2)N1Br = 100 % of control
• CCNCc1cc(Nc2cc(C)nc(/N=C(\N)Nc3ccc(Cl)c(Cl)c3)n2)ccc1OC = 96 % of control
• Cc1cc(N)c2cc(NC(=O)CCCCCCCCC(=O)Nc3ccc4nc(C)cc(N)c4c3)ccc2n1 = 94 % of control
• CC(=O)Oc1ccc(OC(C)=O)c2c1C(=O)C=CC2=O = 111 % of control
• O=NN(CCCl)C(=O)NCC1CCC(CNC(=O)N(CCCl)N=O)CC1 (stereo not given) = 92 % of control
• Cc1ccc(NC(=O)N(CCCl)N=O)cc1C = 112 % of control

The reported value for CCOC(=O)C1C(=O)C(CN(CCCl)CCCl)C(=O)C(C(=O)OCC)C1c1ccc(O)cc1 (stereo not given) in terms of T/C is 94 % of control

// sample COc1ccc(NC(=O)N(CCCl)N=O)cc1OC , its T/C was 100 % of control

Per the records, this compound ( O=NN(CCCl)C(=O)Nc1cc2c3ccccc3ccc2c2ccccc12 ) has T/C equal to 95 % of control

Record CC[C@@H](C(=O)[C@@H](C)[C@@H](O)[C@H](C)CCc1ccc(C)c(O)c1C(=O)O)[C@H]1O[C@](CC)([C@H]2CC[C@](O)(CC)[C@H](C)O2)C[C@@H]1C , field T/C: 93 % of control

Per the records, this compound ( C[C@]12CC[C@H]3[C@@H](CC[C@]4(O)C[C@@H](O)CC[C@]34C=O)[C@@]1(O)CC[C@@H]2C1=CC(=O)OC1 ) has T/C equal to 87 % of control

The origin of these recorded values is PubChem BioAssay AID270.
